Listing of recorded MIC, C. parapsilosis by entry.
# Test system: Candida parapsilosis (BNCC336015)
# Details: BNCC336015, 24 h
Where a SMILES comes first, the peptide text is derived from it. Bridges are numbered along the chain shown (N, C = ends). [ ]: non-standard residue; d: D form.

[[record]]
molecule = "CC(C)C[C@@H]1NC(=O)[C@@H]2CSSC[C@@H](C(N)=O)NC(=O)[C@@H](CCCCN)NC(=O)[C@H](CC(C)C)NC(=O)[C@@H](CCCCN)NC(=O)[C@H](CSSC[C@H](NC(=O)[C@@H](N)CC(C)C)C(=O)N2)NC(=O)[C@H](C)NC(=O)[C@@H](CCCCN)NC(=O)[C@H](CC(C)C)NC(=O)[C@@H](CCCCN)NC1=O [Pep 4] (H-LCCL[dK]L[dK]AC[dK]L[dK]C-NH2; disulfide 2-9, 3-13)"
parameter = "MIC, C. parapsilosis"
reported = ">64 µM"

[[record]]
molecule = "CC(C)C[C@@H]1NC(=O)[C@H](CCCCN)NC(=O)[C@H](CC(C)C)NC(=O)[C@H](CCCCN)NC(=O)[C@@H]2CSSC[C@H](NC(=O)[C@@H](N)CC(C)C)C(=O)N[C@@H](CSSC[C@@H](C(N)=O)NC(=O)[C@H](CCCCN)NC1=O)C(=O)N[C@@H](CC(C)C)C(=O)N[C@@H](CCCCN)C(=O)N2 [Pep 7] (H-LCCLKCKLKLKC-NH2; disulfide 2-6, 3-12)"
parameter = "MIC, C. parapsilosis"
reported = "64 µM"


# ---- query molecule ----
Query :: What value of measured MIC, C. parapsilosis is listed for CC(C)C[C@@H]1NC(=O)[C@@H]2CSSC[C@@H](C(N)=O)NC(=O)[C@@H](CCCCN)NC(=O)[C@H](Cc3c[nH]c4ccccc34)NC(=O)[C@@H](CCCCN)NC(=O)[C@H](CSSC[C@H](NC(=O)[C@@H](N)CC(C)C)C(=O)N2)NC(=O)[C@@H](CCCCN)NC(=O)[C@H](CC(C)C)NC(=O)[C@@H](CCCCN)NC1=O [Pep 2] (H-LCCL[dK]L[dK]C[dK]W[dK]C-NH2; disulfide 2-8, 3-12) ?
Result :: >64 µM

----------
# System: Bacillus subtilis (BNCC109047)
# Details: BNCC109047, 24 h
Where a SMILES comes first, the peptide text is derived from it. Bridges are numbered along the chain shown (N, C = ends). [ ]: non-standard residue; d: D form.
Parameter: MIC, B. subtilis (µM)
Answer with a number only, understood to be in µM.

[[record]]
molecule = "CC(C)C[C@@H]1NC(=O)[C@H](CCCCN)NC(=O)[C@@H]2CSSC[C@H](NC(=O)[C@H](CC(C)C)NC(=O)[C@H](CCCCN)NC(=O)[C@H](CCCCN)NC(=O)[C@@H](N)CC(C)C)C(=O)N[C@@H](CSSC[C@@H](C(N)=O)NC(=O)[C@H](CCCCN)NC1=O)C(=O)N[C@@H](CCCCN)C(=O)N2 [Pep 9] (H-LKKLCCKCKLKC-NH2; disulfide 5-8, 6-12)"
parameter = "MIC, B. subtilis"
units_symbol = "µM"
reported = 128


# ---- query molecule ----
Query :: What value of measured MIC, B. subtilis is listed for CC(C)C[C@@H]1NC(=O)[C@@H]2CSSC[C@@H](C(N)=O)NC(=O)[C@@H](CCCCN)NC(=O)[C@H](CC(C)C)NC(=O)[C@@H](CCCCN)NC(=O)[C@H](CC(C)C)NC(=O)[C@@H](CCCCN)NC(=O)[C@H](CSSC[C@H](NC(=O)[C@@H](N)CC(C)C)C(=O)N2)NC(=O)[C@@H](CCCCN)NC1=O [Pep 5] (H-LCCL[dK]C[dK]L[dK]L[dK]C-NH2; disulfide 2-6, 3-12) ?
Result :: 128
